# Assay target: Aromatase (Homo sapiens)
# Sequence (P11511 whole entry): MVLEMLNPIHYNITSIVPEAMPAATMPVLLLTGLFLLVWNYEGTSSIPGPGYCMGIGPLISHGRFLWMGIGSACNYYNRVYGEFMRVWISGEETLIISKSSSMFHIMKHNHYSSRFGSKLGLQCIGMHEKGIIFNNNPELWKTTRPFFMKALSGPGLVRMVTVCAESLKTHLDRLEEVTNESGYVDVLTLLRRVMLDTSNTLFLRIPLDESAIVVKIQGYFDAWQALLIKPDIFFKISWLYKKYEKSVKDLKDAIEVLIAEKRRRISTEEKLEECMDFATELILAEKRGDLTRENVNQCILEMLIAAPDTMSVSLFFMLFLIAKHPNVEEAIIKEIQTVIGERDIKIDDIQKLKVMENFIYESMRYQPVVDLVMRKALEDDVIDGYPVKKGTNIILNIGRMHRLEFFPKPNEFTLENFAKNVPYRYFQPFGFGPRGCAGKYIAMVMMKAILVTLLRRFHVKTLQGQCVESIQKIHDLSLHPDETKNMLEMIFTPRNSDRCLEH
Recorded pIC50, one value per entry.
pIC50 here is simply -log10 of the concentration when that concentration is written in mol/L.

Log: Aromatase (Homo sapiens), molecule `CC[C@H]1CCC[C@@]2(C)C1=CC[C@@H]1[C@@H]2CC[C@]2(C)C(=O)CC[C@@H]12` , pIC50 = 5.35

Bench note, Aromatase (Homo sapiens): `CCC[C@H]1CCC[C@@]2(C)C1=CC[C@@H]1[C@@H]2CC[C@]2(C)C(=O)CC[C@@H]12` , pIC50 reads 5.26

Note to self: pIC50 of `C[C@]12CCC(=O)C(O)=C1CC[C@@H]1[C@@H]2CC[C@]2(C)OC(=O)CC[C@@H]12` with Aromatase (Homo sapiens) was 5.73

Param item: `CCCC(=O)OC1=C2CC[C@@H]3[C@H](CC[C@]4(C)C(=O)CC[C@@H]34)[C@@]2(C)CCC1` ; param system: Aromatase (Homo sapiens); output pIC50: 5.82
